System: CAKI-1 renal
Assay: NCI tumour cell line growth inhibition, 48 h
# maps each entry to its GI50

Study these solved cases before continuing.
1) COC(=O)[C@]12CCC(C)(C)C[C@H]1C1=CC[C@@H]3[C@@]4(C)C/C(=C/c5cccnc5)C(=O)C(C)(C)[C@@H]4CC[C@@]3(C)[C@]1(C)CC2 ... 6.87 µM
2) Cn1cc(C2=C(c3cn(CCCN=C(N)N)c4ccccc34)C(=O)NC2=O)c2ccccc21 ... > 25 µM
3) COc1ccc(-c2cc3c(nn2)-c2ccccc2C3=O)cc1 ... > 100 µM

Tell me the measured GI50 of C[C@]12CC[C@@H]3c4ccc(Oc5nc(N6CC6)nc(N6CC6)n5)cc4CC[C@H]3[C@@H]1CCC2=O , please.
0.641 µM

###

Tested on: SR leukemia
Test: NCI tumour cell line growth inhibition, 48 h
# maps each entry to its TGI

Tell me the measured TGI of N#Cc1nc(COCCOCc2ccccc2)oc1N , please.
> 100 µM

###

Test system: CAKI-1 renal
Assay: NCI tumour cell line growth inhibition, 48 h
parameter: TGI

1. CN(C)C(=S)SN(C)C(=O)Nc1ccccc1 ... 60.5 µM
2. Cc1c2c(nn1-c1ccc(S(=O)(=O)/N=C3\SCC(=O)N3C(=O)c3ccccc3)cc1)-c1ccccc1CC2 ... 65.9 µM
3. CSc1nc(Cl)c2c(n1)Sc1nc3cc4c(cc3n1C2O)OCO4 (stereo not given) ... > 100 µM
4. COc1ccc(C(=O)O)c(Cc2cccc3ccccc23)c1 ... > 100 µM

Pending compound:
Recorded TGI for CCCCCCCCCCCCCCCCOP(=O)(O)Oc1ccc(/C=C\c2ccc(OP(=O)(O)OCCCCCCCCCCCCCCCC)cc2)cc1 with CAKI-1 renal, please?
> 100 µM

###

Test system: RXF 393 renal
Assay: NCI tumour cell line growth inhibition, 48 h
parameter: TGI (µM)
Dear colleague, please return just the value in µM, with no unit written.

Recorded TGI for CC(=O)OCC1OC(N2C(c3ccccc3)=CC(c3ccccc3)C(C#N)=C2S)C(OC(C)=O)C(OC(C)=O)C1OC(C)=O (configuration not stated) with RXF 393 renal, please?
12.9

Item: O=C(NCCCNC(=O)c1ccc2cc(O)c(O)cc2c1)c1ccc2cc(O)c(O)cc2c1
99.7

Item: Oc1cc(O)c2c(c1)O[C@H](c1cc(O)c(O)c(O)c1)[C@H](O)C2
29.6

Item: Cc1cc(C)cc(Nc2nnc3n2S(=O)(=O)c2cc(C#N)c(Cl)cc2S3)c1
3.26

###

Tested on: SK-MEL-5 melanoma
Test: NCI tumour cell line growth inhibition, 48 h; in the data active = GI50 below about 0.43 µM; inactive = the rest
Classes to choose from: Y = active, N = inactive

1) CC[C@H](C)[C@H](NC(=O)[C@H]1CCCCN1C)C(=O)N(C)[C@H](CCc1nc(C(=O)N[C@@H](Cc2ccccc2)C[C@H](C)C(=O)OC)cs1)C(C)C ... Y
2) COc1cc2c3c(n(CCCCl)c(=O)c2cc1OC)-c1ccccc1C3=O ... N

Entry CCCCNC(=O)NS(=O)(=O)c1ccc(N2N=C(c3ccc(C)cc3C)CC2c2ccc(N(C)C)cc2)cc1 (stereo not drawn) : call = ?
N

###

# maps each entry to its TGI
Test system: HS 578T breast
Test: NCI tumour cell line growth inhibition, 48 h

Study these solved cases before continuing.
1) CC/C(=N/O)c1ccc(Br)s1 ... > 100 µM
2) CC(=O)OC[C@H]1[C@@H]2C(CC[C@]13CO3)OC(=O)CC(C)[C@]2(C)CCc1ccoc1 (some centres not stated) ... > 100 µM

Tell me the measured TGI of CCC1c2[nH]c3ccccc3c2C[C@H]2C(=O)NC(CCC(=O)OC(C)(C)C)C(=O)N12 (some centres not stated) , please.
> 100 µM

Reference source: PubChem BioAssay (NCI)
